So I've got a bunch of compounds here, and I need their Ki values.
Target: Cathepsin S (Homo sapiens)
Experiment: Cathepsin S inhibition, fluorogenic peptide substrate kinetic assay
Assay type: biochemical
Details: Table II; Cathepsin S inhibition constant, pH5.5; read-out: Ki Cat. S

What value of measured Ki is listed for C[C@@H](CNc1ccc(OC(F)(F)F)cc1)NC(=O)[C@H](CC1CCCCC1)NC(=O)c1ccc(-c2cccnc2)o1 ?
< 100 nM

And for O=C(N[C@@H](CC1CCCCC1)C(=O)N[C@@H](COCc1ccccc1)CN1CCc2cc(F)ccc21)OCc1ccccc1 ?
< 100 nM

# repeat for C[C@@H](CNc1ccc(OC(F)(F)F)cc1)NC(=O)[C@H](CC1CCCCC1)NC(=O)C1CCOCC1
< 100 nM

Input CC(C(=O)N[C@@H](CC1CCCCC1)C(=O)NCCN1CCc2cc(F)ccc21)c1ccc(Cl)cc1 (some centres unmarked)
< 100 nM

Check Cc1cccc(C(=O)N[C@H](C(=O)NCCN2CCc3cc(F)ccc32)C2CCCCC2)c1 too.
< 1000 nM

Another compound: COc1ccc(N2CCC[C@H](NC(=O)[C@H](CC(C)C)NC(=O)c3cccc(C)c3)C2)cc1 (single isomer, unassigned)
< 10000 nM

Note, next up: COC(=O)c1ccc(COC[C@@H](CN2CCc3cc(F)ccc32)NC(=O)[C@H](CCC2CCCCC2)NC(=O)c2cccc(OC)c2)cc1
< 100 nM

Try the compound Cn1cncc1S(=O)(=O)N[C@@H](CC1CCCCC1)C(=O)NCCN1CCc2cc(F)ccc21
< 10000 nM

Try this compound too: CC(C)(C)OC(=O)N[C@@H](CC1CCCCC1)C(=O)N[C@@H](CC(=O)OCc1ccccc1)CN1CCc2cc(F)ccc21
< 100 nM

Cool, now O=C(Nc1ccc(-c2ccccc2)s1)N[C@@H](CC1CCCCC1)C(=O)NCCN1CCc2cc(F)ccc21
< 10000 nM

Do the same for COc1cccc(C(=O)N[C@@H](CCC2CCCCC2)C(=O)NCCN2CCc3cc(OCc4ccccc4)ccc32)c1 please
< 10000 nM

Item: Cc1cccc(C(=O)N[C@@H](Cc2ccccc2Cl)C(=O)NCCN2CCc3cc(F)ccc32)c1
< 1000 nM

Thanks! And O=C(NC(C(=O)NC(CO)CN1CCc2cc(F)ccc21)c1ccc(Cl)cc1Cl)c1ccco1 (centres unmarked) [Compound 212] ?
< 1000 nM

Then this compound: C[C@@H](CN1CC(C)(C)c2cc(F)ccc21)NC(=O)[C@H](CC1CCCCC1)NC(=O)O[C@@H]1CCOC1
< 100 nM

====

Molecular target: Cathepsin S (Homo sapiens, UniProt P25774)
Sequence (P25774 115-331, species assumed): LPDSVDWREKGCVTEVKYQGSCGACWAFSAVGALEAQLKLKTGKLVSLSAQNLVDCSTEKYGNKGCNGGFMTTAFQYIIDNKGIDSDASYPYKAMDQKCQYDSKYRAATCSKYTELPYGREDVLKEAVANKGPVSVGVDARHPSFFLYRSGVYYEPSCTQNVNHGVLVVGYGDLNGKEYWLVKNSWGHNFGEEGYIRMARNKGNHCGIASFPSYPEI
Test: Cathepsin S inhibition, fluorogenic peptide substrate kinetic assay
Assay type: biochemical
Details: Table II; Cathepsin S inhibition constant, pH5.5; read-out: Ki Cat. S
READOUT_LABEL: Ki

Query: Ki; subject: COc1cccc(C(=O)N[C@@H](CC(C)(C)C)C(=O)N[C@@H](CC(=O)OC(C)(C)C)CN2CCc3cc(F)ccc32)c1
< 100 nM

Now consider C[C@@H](CNc1ccccc1S(C)(=O)=O)NC(=O)[C@H](CC1CCCCC1)NC(=O)c1ccc(-c2cccc(F)c2)o1 and answer again.
< 100 nM

Same question for COc1cccc(C(=O)N[C@@H](CC(C)(C)C)C(=O)N[C@@H](COCc2ccccc2)CN2CCc3cc(F)ccc32)c1 please.
< 100 nM

Value source: patent US20040248887A1
